Tested on: upland rice (Oryza sp., var. Tebonnet, RICE)
Assay: Post-emerge test, crop safety
Format: in vivo
Conditions: post-emerge, 250 g ai/ha, 14 days after application, rating scale 0-100
measured parameter: RICE phytotoxicity rating (crop damage)
# print the numeric value only

Per the record, COc1c(Cl)cc(F)c(-n2c(=O)cc(C(F)(F)F)n(C)c2=O)c1NC(=O)c1ccc2c(C#N)cccc2c1 has RICE phytotoxicity rating (crop damage) of 55

Per the record, COc1c(Cl)cc(F)c(-n2c(=O)cc(C(F)(F)F)n(N)c2=O)c1NC(=O)C=Cc1ccccc1 has RICE phytotoxicity rating (crop damage) of 35

Per the record, COc1c(Cl)cc(F)c(-n2c(=O)cc(C(F)(F)F)n(C)c2=O)c1NC(=O)c1ccc2cccc(F)c2c1 has RICE phytotoxicity rating (crop damage) of 70

Per the record, COc1c(Cl)cc(F)c(-n2c(=O)cc(C(F)(F)F)n(C)c2=O)c1NC(=O)CCc1cc(C)ccc1C [2-132] has RICE phytotoxicity rating (crop damage) of 80

###

Give measured Post-emerge phytotoxicity rating RICE (crop damage) for each item. Keep answers brief.
System: upland rice (Oryza sp., var. Tebonnet, RICE)
Assay: Post-emerge test, crop safety
Assay type: in vivo
Settings: Rate 250 g ai/ha; rating scale 0-100 (0 no damage, 100 complete death); 14 days after application
# print the numeric value only

Per the record, CCCCCOC(=O)C(Cl)Cc1c(OC)c(Cl)cc(F)c1-n1c(=O)cc(C(F)(F)F)n(C)c1=O (single isomer, unassigned) [14-11] has Post-emerge phytotoxicity rating RICE (crop damage) of 20

Per the record, COc1c(Cl)cc(F)c(-n2c(=O)cc(C(F)(F)F)n(C)c2=O)c1CC(C)(Cl)C(=O)OCCSC (stereo not drawn) has Post-emerge phytotoxicity rating RICE (crop damage) of 100

Per the record, COc1c(Cl)cc(F)c(-n2c(=O)cc(C(F)(F)F)n(C)c2=O)c1CC(Cl)C(=O)OCC(C)C (single isomer, unassigned) [14-14] has Post-emerge phytotoxicity rating RICE (crop damage) of 30

###

System: ivyleaf morningglory (Ipomoea hederacea, IPOHE)
Test: Post-emerge test, greenhouse herbicide activity screening
Format: in vivo
Conditions: post-emerge, 250 g ai/ha, 14 days after application, rating scale 0-100
Give measured phytotoxicity rating IPOHE for each item. Keep answers brief.
# print the numeric value only

Per the record, Cn1c(C(F)(F)F)cc(=O)n(-c2ccc(Cl)cc2NC(=O)OCc2ccccc2F)c1=O [4-49] has phytotoxicity rating IPOHE of 100

Per the record, COc1c(Cl)cc(F)c(-n2c(=O)cc(C(F)(F)F)n(C)c2=O)c1NC(=O)OCc1ccc(Cl)c(Cl)c1 [4-32] has phytotoxicity rating IPOHE of 100

Per the record, COc1c(Cl)cc(F)c(-n2c(=O)cc(C(F)(F)F)n(C)c2=O)c1NC(=O)OCc1c(F)cccc1F [4-29] has phytotoxicity rating IPOHE of 100

Per the record, COc1c(Cl)cc(F)c(-n2c(=O)cc(C(F)(F)F)n(C)c2=O)c1NC(=O)c1cccc2ccccc12 [2-74] has phytotoxicity rating IPOHE of 60

Per the record, Cn1c(C(F)(F)F)cc(=O)n(-c2ccc(Cl)cc2NC(=O)Oc2ccccc2)c1=O [4-50] has phytotoxicity rating IPOHE of 90

Per the record, COc1c(Cl)cc(F)c(-n2c(=O)cc(C(F)(F)F)n(C)c2=O)c1NC(=O)C1CC1 [2-206] has phytotoxicity rating IPOHE of 90

Per the record, COc1c(Cl)cc(F)c(-n2c(=O)cc(C(F)(F)F)n(C)c2=O)c1NC(=O)c1ccc(-c2ccccc2)cc1 [2-37] has phytotoxicity rating IPOHE of 0

Per the record, COc1c(Cl)cc(F)c(-n2c(=O)cc(C(F)(F)F)n(C)c2=O)c1NC(=O)c1ccc(Cl)cc1 [2-56] has phytotoxicity rating IPOHE of 100
